Sourced from ChEMBL document CHEMBL4007472

Target: Disintegrin and metalloproteinase domain-containing protein 17 (Homo sapiens, UniProt P78536)
Sequence (P78536 whole entry, the tested form may be a part): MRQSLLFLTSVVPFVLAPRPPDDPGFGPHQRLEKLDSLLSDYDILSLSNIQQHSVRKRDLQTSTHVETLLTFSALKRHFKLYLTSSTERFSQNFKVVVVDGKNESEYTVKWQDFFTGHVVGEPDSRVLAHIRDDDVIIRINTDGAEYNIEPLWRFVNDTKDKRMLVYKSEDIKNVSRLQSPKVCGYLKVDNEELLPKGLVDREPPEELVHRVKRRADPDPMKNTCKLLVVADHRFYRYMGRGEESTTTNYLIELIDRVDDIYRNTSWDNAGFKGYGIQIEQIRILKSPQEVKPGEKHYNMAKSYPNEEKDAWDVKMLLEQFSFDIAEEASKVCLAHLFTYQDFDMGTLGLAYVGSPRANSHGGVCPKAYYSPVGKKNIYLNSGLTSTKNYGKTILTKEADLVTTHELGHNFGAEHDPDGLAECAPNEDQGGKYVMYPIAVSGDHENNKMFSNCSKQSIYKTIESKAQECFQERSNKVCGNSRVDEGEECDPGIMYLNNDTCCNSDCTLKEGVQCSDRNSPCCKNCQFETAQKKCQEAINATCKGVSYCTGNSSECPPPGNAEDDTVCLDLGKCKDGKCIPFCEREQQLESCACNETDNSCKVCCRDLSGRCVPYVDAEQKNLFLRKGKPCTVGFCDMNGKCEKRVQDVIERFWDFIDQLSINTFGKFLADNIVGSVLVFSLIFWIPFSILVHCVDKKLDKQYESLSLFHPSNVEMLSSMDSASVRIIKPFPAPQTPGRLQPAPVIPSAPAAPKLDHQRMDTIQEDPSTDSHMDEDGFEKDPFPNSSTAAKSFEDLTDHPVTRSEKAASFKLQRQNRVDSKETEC
Test: Inhibition of recombinant TACE catalytic domain (unknown origin) using Abz-LAQAVRSSSR-Dpa as substrate preincubated for 10 mins followed by substrate addition measured after 10 mins by FRET assay
Details: read-out: pIC50 (converted)
quantity.kind: IC50 (nM)
Expressed in nM, but write only the number.

Query string: What value of IC50 has been reported for the following compound? Cc1cc(COc2ccc(S(=O)(=O)N[C@@H]3CCC[C@@H]3C(=O)NO)cc2)c2ccccc2n1 (relative stereo)
Result string: 0.631

Query string: Same read-out for Cc1cc(COc2ccc(S(=O)(=O)N(C)[C@@H]3[C@@H]4CC[C@@H](C4)[C@@H]3C(=O)NO)cc2)c2ccccc2n1 ?
Result string: 1

Query string: Same read-out for CC(=O)N1CCC(NS(=O)(=O)c2ccc(OCc3cc(C)nc4ccccc34)cc2)C(C(=O)NO)C1 (centres undefined) ?
Result string: 1

--- query ---
Query string: What value of IC50 has been reported for the following compound? C#CCN1CC[C@@H](NS(=O)(=O)c2ccc(OCc3cc(C)nc4ccccc34)cc2)[C@@](C)(C(=O)NO)C1
Result string: 20

====

Documented pIC50 across a set of compounds
Biological target: Disintegrin and metalloproteinase domain-containing protein 17 (Homo sapiens, UniProt P78536)
Test: Inhibition of recombinant human TACE catalytic domain using Mca-Pro-Leu-Ala-Gln-Ala-Val-Dpa-Arg-Ser-Ser-Ser-Arg-NH2 as substrate after 2 hrs by fluorescence assay
Units for pIC50: none; it is -log10 of a concentration expressed in mol/L.

The examples below pair each entry with its known result.
Query string: What value of pIC50 has been reported for the following compound? Cc1cc(COc2ccc(S(=O)(=O)N3CCC(CC(C)C)(C(=O)NO)C3)cc2)c2ccccc2n1 (stereo unspecified)
Result string: 7.46

Query string: Same read-out for CCC1(C(=O)NO)CCN(S(=O)(=O)c2ccc(OCc3cc(C)nc4ccccc34)cc2)C1 (stereo unspecified) ?
Result string: 7.80

Query string: Same read-out for Cc1cc(COc2ccc(S(=O)(=O)N3CCN(C(=O)C4CCC4)C(C(=O)NO)C3)cc2)c2c(n1)CCCC2 (stereo unspecified) ?
Result string: 7.72

Query string: Same read-out for COC(=O)N1CCN(S(=O)(=O)c2ccc(OCc3cc(C)nc4c3CCCC4)cc2)CC1C(=O)NO (stereo unspecified) ?
Result string: 7.40

Query string: Same read-out for Cc1cc(COc2ccc(S(=O)(=O)N3CCCC(C)(C(=O)NO)C3)cc2)c2c(n1)CCCC2 (stereo unspecified) ?
Result string: 7.40

Query string: Same read-out for CC(=O)N1C[C@H](S(=O)(=O)c2ccc(OCc3cc(C)nc4c3CCCC4)cc2)C[C@H]1C(=O)NO ?
Result string: 5.44

Query string: Same read-out for Cc1cc(COc2ccc(S(=O)(=O)N3CCN(C4CCC4)C(C(=O)NO)C3)cc2)c2c(n1)CCCC2 (stereo unspecified) ?
Result string: 6.82

Query string: Same read-out for CC(=O)N1CCN(S(=O)(=O)c2ccc(OCc3cc(C)nc4c3CCCC4)cc2)CC1C(=O)NO (stereo unspecified) ?
Result string: 7.85

Query string: Same read-out for Cc1cc(COc2ccc(S(=O)(=O)N3CCN(C(=O)C(C)(C)C)C(C(=O)NO)C3)cc2)c2c(n1)CCCC2 (stereo unspecified) ?
Result string: 7.92

Query string: Same read-out for CC(=O)N1C[C@@H](S(=O)(=O)c2ccc(OCc3cc(C)nc4c3CCCC4)cc2)C[C@H]1C(=O)NO ?
Result string: 6.46

***
Query string: What value of pIC50 has been reported for the following compound? Cc1cc(COc2ccc(S(=O)(=O)NC[C@@H](C(=O)NO)N3CCCCC3)cc2)c2c(n1)CCCC2
Result string: 8.22

Query string: Same read-out for CC1(C)SCCN(S(=O)(=O)c2ccc(OCC#CCO)cc2)[C@H]1C(=O)NO ?
Result string: 8.40

Query string: Same read-out for Cc1cc(COc2ccc(S(=O)(=O)N3CCC(C(=O)NO)C3)cc2)c2c(n1)CCCC2 (stereo unspecified) ?
Result string: 6.68

Query string: Same read-out for Cc1cc(COc2ccc(S(=O)(=O)N3CCN(C(=O)CC(C)C)C(C(=O)NO)C3)cc2)c2c(n1)CCCC2 (stereo unspecified) ?
Result string: 7.64

Query string: Same read-out for CCC(=O)N1CCN(S(=O)(=O)c2ccc(OCc3cc(C)nc4c3CCCC4)cc2)CC1C(=O)NO (stereo unspecified) ?
Result string: 7.64

Query string: Same read-out for Cc1cc(COc2ccc(S(=O)(=O)N3CCN(C)C(C(=O)NO)C3)cc2)c2c(n1)CCCC2 (stereo unspecified) ?
Result string: 6.80

Query string: Same read-out for CC(=O)N1CCCN(S(=O)(=O)c2ccc(OCc3cc(C)nc4ccccc34)cc2)CC1C(=O)NO (stereo unspecified) ?
Result string: 6.70

====

Assay: Intrinsic clearance in human hepatocytes assessed per million cells at 1 uM up to 90 mins by LC-MS/MS analysis
Type: ADME, cell-based, Hepatocyte
Conditions: read-out: CLH
quantity.kind: hepatocyte CLint at […], 1 µM
Mention the unit after the number when you answer.

Query string: What value of hepatocyte CLint at […], 1 µM has been reported for the following compound? Cc1cc(COc2ccc(S(=O)(=O)N3CCN(C(=O)C(C)(C)C)C(C(=O)NO)C3)cc2)c2c(n1)CCCC2 (stereo unspecified)
Result string: 14 µL/min/1e6 cells

====

Target: Disintegrin and metalloproteinase domain-containing protein 9 (Homo sapiens, UniProt Q13443)
Sequence (Q13443 whole entry, the tested form may be a part): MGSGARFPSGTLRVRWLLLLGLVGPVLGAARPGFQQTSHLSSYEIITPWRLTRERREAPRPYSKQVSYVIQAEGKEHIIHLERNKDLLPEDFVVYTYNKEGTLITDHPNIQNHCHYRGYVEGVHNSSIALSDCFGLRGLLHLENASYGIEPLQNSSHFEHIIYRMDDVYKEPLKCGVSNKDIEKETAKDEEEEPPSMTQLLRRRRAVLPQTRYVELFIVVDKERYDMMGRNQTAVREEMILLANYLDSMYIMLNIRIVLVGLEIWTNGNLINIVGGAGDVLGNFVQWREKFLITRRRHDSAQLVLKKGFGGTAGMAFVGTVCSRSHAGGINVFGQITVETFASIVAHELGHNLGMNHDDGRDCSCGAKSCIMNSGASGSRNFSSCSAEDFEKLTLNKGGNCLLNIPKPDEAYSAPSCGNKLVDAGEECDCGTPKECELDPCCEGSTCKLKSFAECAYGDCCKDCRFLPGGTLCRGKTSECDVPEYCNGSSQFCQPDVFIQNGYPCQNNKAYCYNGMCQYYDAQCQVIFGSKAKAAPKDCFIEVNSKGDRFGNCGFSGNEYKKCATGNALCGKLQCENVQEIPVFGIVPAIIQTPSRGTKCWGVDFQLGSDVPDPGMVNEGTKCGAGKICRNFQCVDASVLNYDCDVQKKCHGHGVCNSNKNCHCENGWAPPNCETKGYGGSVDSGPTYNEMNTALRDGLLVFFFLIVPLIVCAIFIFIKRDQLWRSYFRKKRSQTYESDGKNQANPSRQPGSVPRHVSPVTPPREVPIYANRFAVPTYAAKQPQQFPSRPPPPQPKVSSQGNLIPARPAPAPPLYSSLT
pIC50: −log10 of the molar value.
quantity.kind: pIC50

Query string: What value of pIC50 has been reported for the following compound? Cc1cc(COc2ccc(S(=O)(=O)N3CCN(C(=O)C(C)(C)C)C(C(=O)NO)C3)cc2)c2c(n1)CCCC2 (stereo unspecified)
Result string: < 5.00

====

Target: Disintegrin and metalloproteinase domain-containing protein 17 (Homo sapiens, UniProt P78536)
Test: Inhibition of TACE (unknown origin) by cell based assay
Conditions: read-out: pIC50 (converted)
Documented IC50 across a set of compounds
Expressed in nM, but write only the number.

The examples below pair each entry with its known result.
Query string: What value of IC50 has been reported for the following compound? CNC(=O)[C@@H]1Cc2ccc(cc2)OCCCC[C@H](C(=O)NO)[C@@H](CCCc2cc(OC)ccc2OC)C(=O)N1
Result string: 3980

Query string: Same read-out for CNC(=O)[C@@H]1Cc2ccc(cc2)OCCCC[C@H](C(=O)NO)[C@@H](CCCc2ccc(Cl)cc2)C(=O)N1 ?
Result string: 398

Query string: Same read-out for COCCOc1cc(CCC[C@H]2C(=O)N[C@H](C(=O)c3ccccc3)Cc3ccc(cc3)OCCCC[C@@H]2C(=O)NO)cc(OC)c1 ?
Result string: 15800

--- query ---
Query string: What value of IC50 has been reported for the following compound? CNC(=O)[C@@H]1Cc2ccc(cc2)OCCCC[C@H](C(=O)NO)[C@@H](CCCc2cc(C(F)(F)F)cc(C(F)(F)F)c2)C(=O)N1
Result string: 316

====

Biological target: Disintegrin and metalloproteinase domain-containing protein 17 (Mus musculus)
Sequence (Q9Z0F8 whole entry, the tested form may be a part): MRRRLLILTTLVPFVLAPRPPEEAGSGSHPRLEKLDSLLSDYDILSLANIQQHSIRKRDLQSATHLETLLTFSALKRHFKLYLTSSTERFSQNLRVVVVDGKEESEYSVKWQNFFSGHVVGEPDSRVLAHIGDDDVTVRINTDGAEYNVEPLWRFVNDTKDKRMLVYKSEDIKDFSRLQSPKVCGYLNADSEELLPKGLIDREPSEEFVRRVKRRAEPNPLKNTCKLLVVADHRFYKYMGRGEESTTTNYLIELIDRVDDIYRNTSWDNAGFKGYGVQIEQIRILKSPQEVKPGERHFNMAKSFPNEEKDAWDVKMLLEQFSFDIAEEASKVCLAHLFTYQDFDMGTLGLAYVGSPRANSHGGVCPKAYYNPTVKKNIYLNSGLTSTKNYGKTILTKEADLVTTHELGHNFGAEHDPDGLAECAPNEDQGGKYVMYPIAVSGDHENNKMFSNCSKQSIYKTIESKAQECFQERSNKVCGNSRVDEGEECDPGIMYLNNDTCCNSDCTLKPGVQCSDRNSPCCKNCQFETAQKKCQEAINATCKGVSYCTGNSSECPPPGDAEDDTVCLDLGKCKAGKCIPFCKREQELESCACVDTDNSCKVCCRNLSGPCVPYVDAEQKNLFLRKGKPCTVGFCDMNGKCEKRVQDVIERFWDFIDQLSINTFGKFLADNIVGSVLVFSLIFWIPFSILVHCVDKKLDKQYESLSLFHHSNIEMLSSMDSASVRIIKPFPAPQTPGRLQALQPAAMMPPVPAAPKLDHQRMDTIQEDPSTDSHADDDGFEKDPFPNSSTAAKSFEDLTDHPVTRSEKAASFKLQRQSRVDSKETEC
Test: Inhibition of TACE in mouse RAW264.7 cells assessed as inhibition of LPS-stimulated TNFalpha production pretreated for 1 hr followed by LPS stimulation for 4 hrs by ELISA
Type: cell-based
Conditions: read-out: IC50
Documented pIC50 across a set of compounds
Units for pIC50: none; it is -log10 of a concentration expressed in mol/L.

Query string: What value of pIC50 has been reported for the following compound? CC(=O)N1C[C@H](C(=O)NO)[C@H](NS(=O)(=O)c2ccc(OCc3cc(C)nc4ccccc34)cc2)C1 (relative stereo)
Result string: 7.70

***
Query string: What value of pIC50 has been reported for the following compound? Cc1cc(COc2ccc(S(=O)(=O)N[C@@H]3CCN(C(C)C)C[C@]3(C)C(=O)NO)cc2)c2ccccc2n1
Result string: 6.00

====

Target: Disintegrin and metalloproteinase domain-containing protein 17 (Homo sapiens)
Assay: Inhibition of TACE (unknown origin) by cell based assay
Settings: read-out: IC50
quantity.kind: IC50 (µM)
Expressed in µM, but write only the number.

Query string: What value of IC50 has been reported for the following molecule? O=C(c1ccccc1)[C@@H]1Cc2ccc(cc2)OCCCC[C@H](C(=O)NO)[C@@H](CCCc2cc(Br)cc(Br)c2)C(=O)N1
Result string: 5

====

Target: Disintegrin and metalloproteinase domain-containing protein 10 (Homo sapiens)
Sequence (O14672 whole entry): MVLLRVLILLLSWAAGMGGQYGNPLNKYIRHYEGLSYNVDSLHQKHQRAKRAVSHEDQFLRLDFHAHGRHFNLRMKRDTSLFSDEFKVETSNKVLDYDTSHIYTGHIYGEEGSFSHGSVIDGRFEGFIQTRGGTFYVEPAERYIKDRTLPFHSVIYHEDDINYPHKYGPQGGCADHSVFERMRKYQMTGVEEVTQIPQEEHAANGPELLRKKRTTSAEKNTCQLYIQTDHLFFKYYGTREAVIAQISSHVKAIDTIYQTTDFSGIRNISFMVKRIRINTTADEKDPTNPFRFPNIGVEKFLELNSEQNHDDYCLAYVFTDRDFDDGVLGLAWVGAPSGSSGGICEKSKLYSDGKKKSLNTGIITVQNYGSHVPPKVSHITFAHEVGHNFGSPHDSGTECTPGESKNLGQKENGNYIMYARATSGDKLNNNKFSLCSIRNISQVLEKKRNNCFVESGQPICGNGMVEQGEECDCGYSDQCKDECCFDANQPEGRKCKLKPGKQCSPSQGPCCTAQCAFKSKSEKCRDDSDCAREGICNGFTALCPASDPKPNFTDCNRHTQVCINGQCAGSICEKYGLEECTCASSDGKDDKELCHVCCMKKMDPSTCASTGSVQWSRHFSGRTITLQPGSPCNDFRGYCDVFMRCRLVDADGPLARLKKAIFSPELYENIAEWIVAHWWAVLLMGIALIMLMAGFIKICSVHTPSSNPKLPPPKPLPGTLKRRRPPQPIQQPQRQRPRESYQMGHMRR
pIC50: −log10 of the molar value.
quantity.kind: pIC50

Query string: What value of pIC50 has been reported for the following compound? Cc1cc(COc2ccc(S(=O)(=O)N3CCN(C(=O)C(C)(C)C)C(C(=O)NO)C3)cc2)c2c(n1)CCCC2 (stereo unspecified)
Result string: < 5.00
